Biological target: T1, ZFP SBS#929 (synthetic)
T1 chain: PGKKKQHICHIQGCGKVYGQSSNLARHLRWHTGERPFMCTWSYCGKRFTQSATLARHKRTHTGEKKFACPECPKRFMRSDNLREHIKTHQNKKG
Assay: EMSA
Conditions: tags: MBP fusion
PROPERTY_NAME: Kd (nM)
The response must be a number in nM with no trailing unit.

Please look up its Kd: CAGGTAGAT (dsDNA) DNA 1: CAGGTAGAT DNA 2: ATCTACCTG
1.3
